Provenance of the data: patent US11718618B2

ASSAY SUMMARY: Stability of compounds in human liver microsomes
Format: in vitro ADME
MEASUREMENT PARAMETERS: both sexes, pH 7.4; 0.5 μM compound, 0.5 mg/mL human liver microsomes, 37° C.; maxed at 420 minutes; read-out: HLM Elimination half-life (t1/2, min)
Hi! Just check whether half-life at 0.5 μM is below 200 min. Below gives TRUE, equal or above gives FALSE.

Please review the following examples before continuing.
| MOLECULE | LABEL VALUE |
| --- | --- |
| COc1cc2c(cc1OCC(O)C(F)F)CCN1C[C@@H](CC(C)(C)C)[C@H](O)C[C@H]21 (some centres unmarked) | FALSE |
| COc1cc2c(cc1OCc1ncc(C)o1)CCN1C[C@@H](CC(C)(C)C)[C@H](O)C[C@H]21 | TRUE |
| COc1cc2c(cc1OCc1ccc(F)cc1)CCN1C[C@@H](CC(C)(C)C)[C@H](O)C[C@H]21 | TRUE |
| COc1cc2c(cc1OCC(F)F)CCN1C[C@@H](CC(C)(C)C)[C@H](O)C[C@H]21 | FALSE |
| COc1cc2c(cc1OCCC(F)(F)F)CCN1C[C@H](CC(C)(C)C)[C@@H](O)C[C@@H]21 | FALSE |

Problem: Take the molecule COc1cc2c(cc1OCCC(F)(F)F)CCN1C[C@@H](CC(C)(C)C)[C@H](O)C[C@H]21 and say whether its half-life at 0.5 μM is less than 200 min.
Result: FALSE

Problem: Threshold test, half-life at 0.5 μM < 200 min: COc1cc2c(cc1OCC1COC1)CCN1C[C@@H](CC(C)(C)C)[C@H](O)C[C@H]21
Result: TRUE

Problem: Does this molecule meet the criterion half-life at 0.5 μM < 200 min? COc1cc2c(cc1OCc1cccc(C#N)n1)CCN1C[C@@H](CC(C)(C)C)[C@H](O)C[C@H]21
Result: TRUE
